Reference source for all entries: the supplement of paper PMC11417369

- System: PfAP2-EXP AP2 domain (GST-tagged)
- test.summary: gcPBM binding intensity (ln(normalized median fluorescence intensity)); higher = stronger DNA binding
In all, about 25,000 sequences were measured (“ln(normalized median fluorescence intensity)”: median about 8.6, highest 2% from about 10 on). This excerpt belongs to a sample that is enriched for the highest values.
Classify as follows. Reported gcPBM binding intensity (ln) greater than or equal to 9: class 1. Reported gcPBM binding intensity (ln) below: class 0.

[[record]]
biosequence = "ATATAAATATAAACATGTACATATATATATATATAT [XGTACX_site2824]"
qualitative_label = "class 1"

[[record]]
biosequence = "ATAAAAACATAAAAATGTACATATATATATATATAT [XGTACX_site7165]"
qualitative_label = "class 1"

[[record]]
biosequence = "AATTATAAAAAAAAAAAAAAAAAAAAAAACTAAATG [CACACA_negctrl_site1379]"
qualitative_label = "class 0"

[[record]]
biosequence = "GTAAATATATAAACATGTACATATATAAATATATAA [XGTACX_site7262]"
qualitative_label = "class 0"

[[record]]
biosequence = "TATTGTATCCTTAATGCATGCACCAAATAAAAAAAG [TGCATGCA_site541]"
qualitative_label = "class 1"


Is reported gcPBM binding intensity (ln) greater than or equal to 9 here: ATATATATATATATATGTACATATATATTGTTGATC [XGTACX_site8893]
class 1

Is reported gcPBM binding intensity (ln) greater than or equal to 9 here: "TTGTATCCTTAATGCATGCACCAAATAACAAAAGTA"
class 1

Is reported gcPBM binding intensity (ln) greater than or equal to 9 here: TATATTAGAAGAAATTCACACATTCATGTAATCTTA [CACACA_site4706]
class 0

Is reported gcPBM binding intensity (ln) greater than or equal to 9 here: ATTATTCGTTTTAAATGTACTCATATAAACGATAAA [XGTACX_site7866]
class 0

* * *

- Tested on: PfAP2-EXP AP2 domain (GST-tagged)
- test.summary: gcPBM binding intensity (ln(normalized median fluorescence intensity)); higher = stronger DNA binding
In all, about 25,000 sequences were measured (“ln(normalized median fluorescence intensity)”: median about 8.6, highest 2% from about 10 on). The sample as a whole holds a higher share of the highest values than the screen did.
measured.parameter: gcPBM binding intensity (ln)

Some solved cases for reference:
[[record]]
biosequence = "ACATCTCTTATATATTCACACACATATATATAATTA [CACACA_site8424]"
measured_parameter = "gcPBM binding intensity (ln)"
observed_result = 8.82

[[record]]
biosequence = "AATAAATAAAGAAGTACACACATATATATATATATA [CACACA_site4314]"
measured_parameter = "gcPBM binding intensity (ln)"
observed_result = 10.1


For each of the items listed, what is its gcPBM binding intensity (ln)?
1. TTGTAATATCTTGTCACACATATATATATATATATA [CACACA_site4937]
2. TTCAAAATAAAAAATTCACACACATATATATATATA [CACACA_site8653]
3. ATTATATAATTGTCTTCACACACACCGATATATATA [CACACA_site8883]
4. TATAATTGTCTTCACACACACATATATATATATATA [CACACA_site2743]
5. TTTTTTGCTAAAAAGAGTACTAATAAAAAATTTATT [XGTACX_site5235]

[10.2, 10, 8.93, 10.2, 8.34]

For each of the items listed, what is its gcPBM binding intensity (ln)?
1. GTATAATATTCATATTCACACATTAAAATATATTTA [CACACA_site4879]
2. ATCTTTCAATAATTCACACATATATATATATATATA [CACACA_site4598]

8.49
10.2
